# Tested on: F1*sub RNA substrate (template-directed ligation)
# protocol_details: fraction ligated after 30 min (ligated reads / total reads); higher = more ligase activity; sequences stand for … in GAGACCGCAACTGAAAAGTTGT…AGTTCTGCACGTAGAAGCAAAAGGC
# condition_info: 42 °C
outcome_measure: fraction ligated

In [3]: df
Out[3]:
                            primary_sequence   outcome_measure  assay_result
 0   TACACTTGCGTAAGACACTTTGGATGGGTTG [3d616]  fraction ligated         0.118
 1  TATCACTTGTCGTAAGAACTTTGGATGGTTA [3d2179]  fraction ligated          0.11
 2  TATCACTTTCGTAAACCTTTGGATGGGTTGA [3d1520]  fraction ligated         0.788
 3   ATCACTTGTCGTAAGACCTTGGATGGGTTGA [3d239]  fraction ligated         0.716
 4  TATCATTGTCGTAAGACCTTTGGTGGGTTGA [3d1257]  fraction ligated         0.426
 5   TATACTTGTCGTAAGACCTTTGGATGGTTGA [3d915]  fraction ligated        0.0819
 6   TACACTGTCGTAAGACATTTGGATGGGTTGA [3d577]  fraction ligated         0.617
 7  TATCATTTCGTAAGACACTTTGATGGGTTGA [3d1150]  fraction ligated         0.799
 8  TATCACTTGTCGTAGACACTTTGTGGGTTGA [3d2043]  fraction ligated        0.0334
 9  TATCACTTTGTAAGACACTTGGATGGGTTGA [3d1472]  fraction ligated         0.802
10   ATCACTTGTCGTAAGCACTTTGGTGGGTTGA [3d226]  fraction ligated        0.0296
11   TTCACTTGTGTAAGACACTTTGGAGGGTTGA [3d398]  fraction ligated         0.105
12  TATCACTTGTCGTAAGCACTTTGGAGGGTTGA [2d250]  fraction ligated         0.157
13  TATCACTTGTCGTAAGACATTGGATGGTTGA [3d2211]  fraction ligated        0.0757
14  TATCACTTGTCGTAAGACATTGGATGGGTTA [3d2212]  fraction ligated          0.78
15  TATCACTTGTCGTAAGCACTTTGGATGGTTGA [2d251]  fraction ligated         0.216
16  TATCACTGTGTAAGACACTTTGGATGGTTGA [3d1355]  fraction ligated         0.216
17   TTCACTTTCGTAAGACACTTTGGTGGGTTGA [3d366]  fraction ligated       0.00787
18   TATCTTGTCGTAGACACTTTGGATGGGTTGA [3d745]  fraction ligated         0.819
19  TATCATTGTCTAAGACCTTTGGATGGGTTGA [3d1192]  fraction ligated         0.758
20  TATCACTGTCGTAAACACTTTGGATGGGTTG [3d1407]  fraction ligated          0.83
21  TATCACTTGGTAAGACACTTTGGAGGGTTGA [3d1595]  fraction ligated        0.0523
22  TATCACTTGTCGTAGACATTTGGAGGGTTGA [3d2031]  fraction ligated        0.0197
23   TACACTTGTCGTAAACACTTTGGATGGGTTGA [2d57]  fraction ligated        0.0886
24  TATCACTTGTCGTAAGACCTTTGGTGGGTTG [3d2199]  fraction ligated        0.0351
25   TTCACTTTCGTAAGACATTTGGATGGGTTGA [3d363]  fraction ligated         0.775
26   TACCTTGTCGTAAGACACTTTGGATGGTTGA [3d544]  fraction ligated         0.233
27  TATCATTGTCTAAGACACTTTGGATGGGTTGA [2d113]  fraction ligated         0.785
28  TATCACTTGTCTAAACATTTGGATGGGTTGA [3d1838]  fraction ligated         0.841
29  TATCACTTGTCGAAGACACTTTGGTGGGTTG [3d1973]  fraction ligated        0.0779
30  TATCACTTGCGTAAGAACTTTGGTGGGTTGA [3d1662]  fraction ligated        0.0953
31  TATCACTTTCGAAGAACTTTGGATGGGTTGA [3d1496]  fraction ligated         0.843
32   TTCACTGTCGTAAACACTTTGGATGGGTTGA [3d343]  fraction ligated           0.8
33   ATCACTTGCGTAAGAACTTTGGATGGGTTGA [3d146]  fraction ligated         0.835
34  TATCACTTTCGTAAACACTTTGGTGGGTTGA [3d1524]  fraction ligated        0.0319
35   ATCACTTTCGTAAGACACTTTGGAGGGTTGA [3d136]  fraction ligated        0.0337
36   TATACTGTCGTAAACACTTTGGATGGGTTGA [3d784]  fraction ligated         0.721
37  TATCACTGTCGTAAGACACTTTGATGGTTGA [3d1450]  fraction ligated        0.0354
38  TATCATTGTCGTAAGACCTTTGGATGGGTTA [3d1260]  fraction ligated         0.697
39  TATCACTGTCGTAAGACACTTTGATGGGTTA [3d1451]  fraction ligated         0.351
40  TATCACTGTCTAAGACACTTTGGAGGGTTGA [3d1368]  fraction ligated         0.102
41   TTCACTTGTCGTAAGACACTGGATGGGTTGA [3d484]  fraction ligated         0.705
42  TATCACTTTCTAAGACACTTTGGATGGGTTGA [2d148]  fraction ligated         0.794
43     TCACTTGTCTAAGACACTTTGGATGGGTTGA [3d9]  fraction ligated         0.768
44   TACACTTGTCGTAGACACTTTGGATGGGTTGA [2d56]  fraction ligated         0.617
45  TATCACTTGTCGTAAGACACTTGTGGGTTGA [3d2239]  fraction ligated       0.00905
46  TATCACTTGCGTAGACACTTTGGATGGTTGA [3d1636]  fraction ligated         0.296
